- Measured On: rabbit gut mucosa α-D-glucosidase
- Test Method Notes: Inhibition of rabbit gut mucosa α-D-glucosidase
pIC50: −log10 of the molar value.
Quantity: pIC50

INSERT INTO assay_data (compound, data_value) VALUES
  ('OC[C@@H]1[C@@H](O)[C@H](O)[C@H]2[C@H](O)[C@@H](O)CN21', 3.68),
  ('O[C@H]1[C@H](O)[C@@H](O)CN2CC[C@H](O)[C@H]12 [Castanospermine (20), Castanospermine, reference compound]', 5.10);

====

- Measured On: α-D-glucosidase (Oryza sativa subsp. japonica)
- Construct: purchased Sigma
- Sequence (Q653V7 34-885): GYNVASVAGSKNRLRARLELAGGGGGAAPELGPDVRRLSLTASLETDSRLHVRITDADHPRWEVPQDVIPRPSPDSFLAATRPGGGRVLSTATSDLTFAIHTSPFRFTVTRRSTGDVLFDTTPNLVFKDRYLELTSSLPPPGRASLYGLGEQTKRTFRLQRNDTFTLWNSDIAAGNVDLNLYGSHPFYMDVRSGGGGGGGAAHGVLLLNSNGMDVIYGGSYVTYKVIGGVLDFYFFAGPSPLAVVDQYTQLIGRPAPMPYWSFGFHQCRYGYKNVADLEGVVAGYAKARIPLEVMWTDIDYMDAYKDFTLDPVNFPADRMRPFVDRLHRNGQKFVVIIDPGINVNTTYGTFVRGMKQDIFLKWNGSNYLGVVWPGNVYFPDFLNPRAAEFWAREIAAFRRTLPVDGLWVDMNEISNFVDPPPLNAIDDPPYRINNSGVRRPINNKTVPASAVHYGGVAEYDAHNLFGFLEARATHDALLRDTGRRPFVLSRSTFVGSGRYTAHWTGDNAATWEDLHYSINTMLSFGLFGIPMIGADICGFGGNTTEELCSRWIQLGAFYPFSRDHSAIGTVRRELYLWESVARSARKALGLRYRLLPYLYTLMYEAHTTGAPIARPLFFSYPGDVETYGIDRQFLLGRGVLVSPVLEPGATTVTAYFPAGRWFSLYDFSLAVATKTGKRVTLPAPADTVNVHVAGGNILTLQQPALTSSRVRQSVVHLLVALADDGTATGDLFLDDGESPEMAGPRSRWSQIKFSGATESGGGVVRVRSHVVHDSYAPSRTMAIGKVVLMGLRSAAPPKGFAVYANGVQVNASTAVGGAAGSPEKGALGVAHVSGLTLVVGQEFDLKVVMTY
- Test Method Notes: Glycosidase inhibition: α-D-glucosidase, rice
- Assay type: biochemical, rice (Oryza sativa)
- Condition Summary: 1 mg/ml; read-out: % inhibition, α-gluc (rice)
Quantity: inhibition at 1000 µg/mL (%)

INSERT INTO results (compound, data_value) VALUES
  ('OCC1N[C@H](CO)[C@@H](O)[C@@H]1O (some centres unmarked)', 91),
  ('OCCN1[C@H](CO)[C@@H](O)[C@H](O)[C@H]1CO [N-hydroxyethyl DMDP]', 43),
  ('OC[C@H]1N[C@H](c2ccc(O)cc2)[C@@H](O)[C@@H]1O', 54),
  ('OCCN1C[C@@H](O)[C@H](O)[C@H]1CO', 71),
  ('COc1cc([C@H]2N[C@H](CO)[C@@H](O)[C@@H]2O)ccc1O', 0);

====

Parameter: % inhibition, β-glucosidase. Scope: all listed entries.
- System: β-D-glucosidase
- Test Method Notes: Glycosidase inhibition: β-D-glucosidase, almond
- Assay type: biochemical, Almonds (Prunus sp.)
- Condition Summary: 1 mg/ml
Quantity: % inhibition, β-glucosidase (%)

INSERT INTO measurements (compound, quantity, data_value) VALUES
  ('O[C@@H]1[C@@H]2[C@@H](O)[C@H](O)[C@@H](O)CN2C[C@H]1O [Compound 64, 2-α-hydroxycastanospermine]', '% inhibition, β-glucosidase', '−1'),
  ('COc1cc([C@H]2N[C@H](CO)[C@@H](O)[C@@H]2O)ccc1O', '% inhibition, β-glucosidase', 25),
  ('OCCN1[C@H](CO)[C@@H](O)[C@H](O)[C@H]1CO [N-hydroxyethyl DMDP]', '% inhibition, β-glucosidase', 64),
  ('OC[C@H]1N[C@H](c2ccc(O)cc2)[C@@H](O)[C@@H]1O', '% inhibition, β-glucosidase', 52),
  ('O[C@@H]1[C@@H]2[C@@H](O)[C@H](O)[C@@H](O)CN2C[C@@H]1O [Compound 44, 2-β-hydroxycastanospermine]', '% inhibition, β-glucosidase', 20),
  ('OCC1N[C@H](CO)[C@@H](O)[C@@H]1O (some centres unmarked)', '% inhibition, β-glucosidase', 81),
  ('OCCN1C[C@@H](O)[C@H](O)[C@H]1CO', '% inhibition, β-glucosidase', 44),
  ('O[C@@H]1[C@@H]2[C@@H](O)[C@H](O)[C@H](O)CN2C[C@H]1O [Compound 35, 2-α-hydroxy-6-epi-castanospermine]', '% inhibition, β-glucosidase', '−3');

====

- Measured On: α-D-mannosidase (Canavalia ensiformis)
- Construct: purchased Sigma
- Sequence (C0HJB3 whole entry): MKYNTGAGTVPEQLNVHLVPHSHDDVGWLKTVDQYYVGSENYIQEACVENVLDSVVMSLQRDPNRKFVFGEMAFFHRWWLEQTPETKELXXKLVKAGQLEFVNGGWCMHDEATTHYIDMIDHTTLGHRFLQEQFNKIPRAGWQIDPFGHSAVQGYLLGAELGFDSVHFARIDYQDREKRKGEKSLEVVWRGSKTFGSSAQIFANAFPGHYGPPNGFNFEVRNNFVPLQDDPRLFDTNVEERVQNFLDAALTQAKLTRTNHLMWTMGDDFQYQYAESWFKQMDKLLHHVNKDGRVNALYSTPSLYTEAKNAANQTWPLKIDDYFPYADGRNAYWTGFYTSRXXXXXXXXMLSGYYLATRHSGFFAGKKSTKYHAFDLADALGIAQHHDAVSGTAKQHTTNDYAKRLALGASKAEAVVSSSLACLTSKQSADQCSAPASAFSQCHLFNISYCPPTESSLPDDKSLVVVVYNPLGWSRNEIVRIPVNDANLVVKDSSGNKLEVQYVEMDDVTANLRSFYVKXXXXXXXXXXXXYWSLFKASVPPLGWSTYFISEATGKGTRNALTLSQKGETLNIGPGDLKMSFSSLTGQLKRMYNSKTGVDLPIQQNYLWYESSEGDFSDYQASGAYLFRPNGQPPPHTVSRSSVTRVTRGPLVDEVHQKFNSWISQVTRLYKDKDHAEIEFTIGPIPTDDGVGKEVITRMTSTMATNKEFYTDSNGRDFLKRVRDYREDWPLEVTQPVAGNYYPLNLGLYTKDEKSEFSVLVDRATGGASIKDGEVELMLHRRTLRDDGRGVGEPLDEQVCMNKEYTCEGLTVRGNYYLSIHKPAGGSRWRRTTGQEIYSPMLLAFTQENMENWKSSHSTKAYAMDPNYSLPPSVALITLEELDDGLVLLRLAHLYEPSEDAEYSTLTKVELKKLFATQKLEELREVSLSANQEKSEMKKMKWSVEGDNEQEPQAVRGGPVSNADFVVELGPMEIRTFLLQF
- Test Method Notes: Glycosidase inhibition: α-D-mannosidase
- Type: biochemical, Jack beans (Canavalia ensiformis)
- Condition Summary: read-out: % inhibition, mannosidase
Quantity: inhibition at 1000 µg/mL (%)

INSERT INTO results (compound, units_symbol, data_value) VALUES
  ('O[C@H]1[C@H](O)[C@@H](O)CN2CC[C@H](O)[C@H]12 [Castanospermine (20), Castanospermine, reference compound]', '%', 9),
  ('OC[C@H]1[C@@H](O)[C@H](O)[C@H]2[C@@H](O)[C@H](O)CN21 [Compound 12, 3,6,7-triepi-casuarine]', '%', 8),
  ('OC[C@H]1[C@@H](O)[C@H](O)[C@@H]2[C@@H](O)[C@H](O)CN21 [Compound 21, 3,6,7,7a-tetraepi-casuarine]', '%', 1),
  ('O[C@H]1[C@H]2[C@H](O)CCCN2C[C@H]1O [Swainsonine (4), Swainsonine, reference compound]', '%', 74),
  ('OC[C@H]1[C@@H](O)[C@H](O)[C@H]2[C@@H](O)[C@@H](O)CN21 [3,7-diepi-casuarine (10)]', '%', 8);
